For each of the compounds below, state its inhibition at 50 µg/mL.
- Test system: Staphylococcus aureus
- procedure-summary: Antibiofilm activity against methicillin-resistant Staphylococcus aureus assessed as inhibition of biofilm formation at 50 ug/ml
- Format: functional
Your reply should be a number followed by the unit it is expressed in.

Q. If you can, please state the reported inhibition at 50 µg/mL value of O=C(NC/C=C/c1cnc2ncccn12)c1cc(Br)c(Br)[nH]1 .
A. -9.7%

Q. If you can, please state the reported inhibition at 50 µg/mL value of O=C(NCC(=O)c1cnc2ncccn12)c1ccc[nH]1 .
A. -119%

Q. If you can, please state the reported inhibition at 50 µg/mL value of O=C(NCC(O)c1cnc2ncccn12)c1cc(Br)c[nH]1 (stereo not given) .
A. -127%

Q. If you can, please state the reported inhibition at 50 µg/mL value of Nc1nc(C(=O)CCNC(=O)c2cc(Br)c(Br)[nH]2)c[nH]1 .
A. 28.3%

Q. If you can, please state the reported inhibition at 50 µg/mL value of O=C(CCN1C(=O)c2ccccc2C1=O)c1cnc2ncccn12 .
A. 18.7%

Q. If you can, please state the reported inhibition at 50 µg/mL value of O=C(NCCC(=O)c1cnc2ncccn12)c1cc(Br)c(Br)[nH]1 .
A. -124%

Q. If you can, please state the reported inhibition at 50 µg/mL value of O=C(NCC(=O)c1cnc2ncccn12)c1cc(Br)c(Br)[nH]1 .
A. -119%

Q. If you can, please state the reported inhibition at 50 µg/mL value of O=C(NCC(O)c1cnc2ncccn12)c1ccc[nH]1 (stereo not given) .
A. 16.9%

Q. If you can, please state the reported inhibition at 50 µg/mL value of O=C(NC/C=C/c1cnc2ncccn12)c1cc(Br)c[nH]1 .
A. -108%

Q. If you can, please state the reported inhibition at 50 µg/mL value of O=C(NCCC(O)c1cnc2ncccn12)c1cc(Br)c(Br)[nH]1 (stereo not given) .
A. -20.9%

* * *

- System: Staphylococcus epidermidis
- procedure-summary: Antibacterial activity against Staphylococcus epidermidis GTC 18972 assessed as planktonic growth at 50 ug/ml
- Type: organism-based
value-kind: Activity
Your reply should be a number followed by the unit it is expressed in.

Q. If you can, please state the reported Activity value of O=C(NCCC(=O)c1cnc2ncccn12)c1cc(Br)c(Br)[nH]1 .
A. 15.9%

Q. If you can, please state the reported Activity value of O=C(CN1C(=O)c2ccccc2C1=O)c1cnc2ncccn12 .
A. 29.67%

Q. If you can, please state the reported Activity value of O=C(NCCC(O)c1cnc2ncccn12)c1cc(Br)c[nH]1 (configuration not stated) .
A. 6.5%

Q. If you can, please state the reported Activity value of O=C(NCC(=O)c1cnc2ncccn12)c1cc(Br)c(Br)[nH]1 .
A. 19.25%

Q. If you can, please state the reported Activity value of Cl.Cl.NCC(=O)c1cnc2ncccn12 .
A. 6.4%

Q. If you can, please state the reported Activity value of O=C(NCC(O)c1cnc2ncccn12)c1cc(Br)c(Br)[nH]1 (configuration not stated) .
A. 15.9%

Q. If you can, please state the reported Activity value of O=C(NCC(O)c1cnc2ncccn12)c1cc(Br)c[nH]1 (configuration not stated) .
A. 1.02%

Q. If you can, please state the reported Activity value of O=C(NCCC(=O)c1cnc2ncccn12)c1ccc[nH]1 .
A. 11.45%

Q. If you can, please state the reported Activity value of Nc1ncc(C(=O)CCNC(=O)c2ccc[nH]2)[nH]1 .
A. 81.99%

Q. If you can, please state the reported Activity value of O=C(NCC(=O)c1cnc2ncccn12)c1ccc[nH]1 .
A. 17.02%

Q. If you can, please state the reported Activity value of O=C(NCC(=O)c1cnc2ncccn12)c1cc(Br)c[nH]1 .
A. 19.25%

Q. If you can, please state the reported Activity value of O=C(NC/C=C/c1cnc2ncccn12)c1cc(Br)c(Br)[nH]1 .
A. 9.1%

Q. If you can, please state the reported Activity value of O=C(NCCC(O)c1cnc2ncccn12)c1cc(Br)c(Br)[nH]1 (configuration not stated) .
A. 14.8%

Q. If you can, please state the reported Activity value of O=C(NCCC(O)c1cnc2ncccn12)c1ccc[nH]1 (configuration not stated) .
A. 1%

Q. If you can, please state the reported Activity value of Cl.Cl.NCCC(=O)c1cnc2ncccn12 .
A. 5.5%

Q. If you can, please state the reported Activity value of Nc1nc(C(=O)CCNC(=O)c2cc(Br)c(Br)[nH]2)c[nH]1 .
A. 9.62%

Q. If you can, please state the reported Activity value of O=C(NCCC(=O)c1cnc2ncccn12)c1cc(Br)c[nH]1 .
A. 1.02%

Q. If you can, please state the reported Activity value of O=C(NC/C=C/c1cnc2ncccn12)c1cc(Br)c[nH]1 .
A. -3.1%

Q. If you can, please state the reported Activity value of O=C(NC/C=C/c1cnc2ncccn12)c1ccc[nH]1 .
A. 0.1%

Q. If you can, please state the reported Activity value of Nc1ncc(C(=O)CCNC(=O)c2cc(Br)c[nH]2)[nH]1 .
A. 86.77%

Q. If you can, please state the reported Activity value of O=C(NCC(O)c1cnc2ncccn12)c1ccc[nH]1 (configuration not stated) .
A. 11.45%

Q. If you can, please state the reported Activity value of O=C(CCN1C(=O)c2ccccc2C1=O)c1cnc2ncccn12 .
A. 23.58%

* * *

For each of the compounds below, state its inhibition at 50 µg/mL.
- System: Staphylococcus aureus
- procedure-summary: Antibiofilm activity against methicillin-resistant Staphylococcus aureus assessed as inhibition of biofilm formation at 50 ug/ml
- Assay type: functional
// units = %; emit number, no label

Q. If you can, please state the reported inhibition at 50 µg/mL value of Nc1ncc(C(=O)CCNC(=O)c2cc(Br)c[nH]2)[nH]1 .
A. 88.8

Q. If you can, please state the reported inhibition at 50 µg/mL value of O=C(NCCC(=O)c1cnc2ncccn12)c1cc(Br)c[nH]1 .
A. -127

Q. If you can, please state the reported inhibition at 50 µg/mL value of O=C(CN1C(=O)c2ccccc2C1=O)c1cnc2ncccn12 .
A. -97.9

Q. If you can, please state the reported inhibition at 50 µg/mL value of O=C(NCC(=O)c1cnc2ncccn12)c1cc(Br)c[nH]1 .
A. -124

Q. If you can, please state the reported inhibition at 50 µg/mL value of Nc1ncc(C(=O)CCNC(=O)c2ccc[nH]2)[nH]1 .
A. 88.4

Q. If you can, please state the reported inhibition at 50 µg/mL value of Cl.Cl.NCC(=O)c1cnc2ncccn12 .
A. 4.3

Q. If you can, please state the reported inhibition at 50 µg/mL value of O=C(NCC(O)c1cnc2ncccn12)c1cc(Br)c(Br)[nH]1 (configuration not stated) .
A. -124

Q. If you can, please state the reported inhibition at 50 µg/mL value of O=C(NCCC(O)c1cnc2ncccn12)c1cc(Br)c[nH]1 (configuration not stated) .
A. 8

Q. If you can, please state the reported inhibition at 50 µg/mL value of O=C(NCCC(O)c1cnc2ncccn12)c1ccc[nH]1 (configuration not stated) .
A. -5.1

Q. If you can, please state the reported inhibition at 50 µg/mL value of O=C(NCCC(=O)c1cnc2ncccn12)c1ccc[nH]1 .
A. 16.9

Q. If you can, please state the reported inhibition at 50 µg/mL value of Cl.Cl.NCCC(=O)c1cnc2ncccn12 .
A. -10.6

Q. If you can, please state the reported inhibition at 50 µg/mL value of O=C(NC/C=C/c1cnc2ncccn12)c1ccc[nH]1 .
A. -61

* * *

- Test system: Staphylococcus epidermidis
- procedure-summary: Antibiofilm activity against Staphylococcus epidermidis GTC 18972 assessed as inhibition of biofilm formation at 50 ug/ml
- Type: functional
value-kind: inhibition at 50 µg/mL (%)
// units = %; emit number, no label

Q. If you can, please state the reported inhibition at 50 µg/mL value of O=C(NCCC(=O)c1cnc2ncccn12)c1cc(Br)c(Br)[nH]1 .
A. -9.35

Q. If you can, please state the reported inhibition at 50 µg/mL value of O=C(CN1C(=O)c2ccccc2C1=O)c1cnc2ncccn12 .
A. 8.1

Q. If you can, please state the reported inhibition at 50 µg/mL value of O=C(NC/C=C/c1cnc2ncccn12)c1ccc[nH]1 .
A. 45.9

Q. If you can, please state the reported inhibition at 50 µg/mL value of Nc1ncc(C(=O)CCNC(=O)c2ccc[nH]2)[nH]1 .
A. 97.8

Q. If you can, please state the reported inhibition at 50 µg/mL value of O=C(NC/C=C/c1cnc2ncccn12)c1cc(Br)c[nH]1 .
A. -1.8

Q. If you can, please state the reported inhibition at 50 µg/mL value of Nc1nc(C(=O)CCNC(=O)c2cc(Br)c(Br)[nH]2)c[nH]1 .
A. 33.8

Q. If you can, please state the reported inhibition at 50 µg/mL value of O=C(NCC(O)c1cnc2ncccn12)c1ccc[nH]1 (configuration not stated) .
A. -16.8

Q. If you can, please state the reported inhibition at 50 µg/mL value of O=C(NCC(O)c1cnc2ncccn12)c1cc(Br)c(Br)[nH]1 (configuration not stated) .
A. -9.35

Q. If you can, please state the reported inhibition at 50 µg/mL value of Cl.Cl.NCC(=O)c1cnc2ncccn12 .
A. 28.7

Q. If you can, please state the reported inhibition at 50 µg/mL value of O=C(NCC(=O)c1cnc2ncccn12)c1cc(Br)c(Br)[nH]1 .
A. -2.59

Q. If you can, please state the reported inhibition at 50 µg/mL value of O=C(NCCC(=O)c1cnc2ncccn12)c1cc(Br)c[nH]1 .
A. -9.3

Q. If you can, please state the reported inhibition at 50 µg/mL value of O=C(NCCC(=O)c1cnc2ncccn12)c1ccc[nH]1 .
A. -16.7
